Counter-ions that a name gives are not always drawn.
endpoint: melting point (°C)

Use these answered entries as a reference point.
{"molecule": "COc1cc2c(cc1OC)C(CCc1ccc(C(C)(C)C)cc1)=[N+](Cc1cccc(OC)c1OCc1c(F)c(F)c(C(F)(F)F)c(F)c1F)CC2 (as salt: chloride) [Compound No. 135]", "melting point (°C)": 140}
{"molecule": "CCCCc1ccc(C2=[N+](Cc3ccccc3F)CCc3cc4c(cc32)OCO4)cc1.[Cl-]", "melting point (°C)": 101}
{"molecule": "COc1ccc2c(c1)CC[N+](Cc1ccccc1F)=C2C(C)C.[Cl-] [Compound No. 83]", "melting point (°C)": 102}
{"molecule": "COc1cc2c(cc1OC)C(CCc1ccc(C(C)(C)C)cc1)=[N+](Cc1cccc(OC)c1OCc1ccc(C(F)(F)F)cc1)CC2 (as salt: chloride) [Compound No. 132]", "melting point (°C)": 60}
{"molecule": "COc1cc2c(cc1OC)C(C)=[N+](Cc1cccc(OC)c1OCc1ccc(C(C)(C)C)cc1)CC2.[Cl-] [Compound No. 138]", "melting point (°C)": 105}

P: CC(C)(C)c1ccc(C2=[N+](Cc3ccccc3F)CCc3cc4c(cc32)OCO4)cc1.[Cl-]
Q: COc1cc2c(cc1OC)C(CCc1ccc(C(C)(C)C)cc1)=[N+](Cc1cccc(OC)c1OCc1c(F)cccc1Cl)CC2 (as salt: chloride) [Compound No. 133]
Lookup: Of the two listed items, P and Q , which carries the larger melting point figure? Write down the label of the entry you select.
Found: P

---

- assayExplanation: Oral toxicity test (general symptoms, weight change, lethal case)
- Assay type: in vivo, rats (SD)
- assayConditions: SD, rat, in vivo, 1000 mg/kg; rats, oral, male; read-out: Acute toxicity LD50
Each entry below carries its recorded LD50.

Use these answered entries as a reference point.
{"querySmiles": "CCCCCCCCOc1c(C[N+]2=C(CCc3ccc(C(C)(C)C)cc3)c3cc(OC)c(OC)cc3CC2)cccc1OC", "LD50": "> 1200 mg/kg"}
{"querySmiles": "CCCCCCCCOc1c(C[n+]2ccc3cc(OC)c(OC)cc3c2CCc2ccc(C(C)(C)C)cc2)cccc1OC", "LD50": "> 1500 mg/kg"}
{"querySmiles": "CCCCCCCCCCCC1=[N+](Cc2ccc(C(C)(C)C)cc2)CCc2cc(NC)c(OC)cc21", "LD50": "> 2500 mg/kg"}
{"querySmiles": "CCCCCCCCCCCC1=[N+](Cc2ccccc2F)CCc2cc(OC)c(OC)cc21.[Cl-]", "LD50": "> 1500 mg/kg"}

Here's the next entry for you.
Lookup: Could you share which LD50 value was measured for COc1cc2cc[n+](Cc3cccc(OC)c3OCc3c(F)cccc3Cl)c(CCc3ccc(C(C)(C)C)cc3)c2cc1OC ?
Found: > 2000 mg/kg

---

Structures can show the parent of a compound that is named as a salt.
endpoint: melting point (°C)

{"molecule": "COc1cc2c(cc1OC)C(CCc1ccc(C(C)(C)C)cc1)=[N+](Cc1ccccc1F)CC2 (as salt: chloride) [Compound No. 124]", "unitsOfMeasure": "°C", "melting point": 103}
{"molecule": "COc1ccc(C[N+]2=C(CCc3ccc(C(C)(C)C)cc3)c3cc(OC)c(OC)cc3CC2)cc1OC (as salt: chloride) [Compound No. 125]", "unitsOfMeasure": "°C", "melting point": 100}
{"molecule": "CC1=[N+](Cc2ccc(F)c(F)c2)CCc2cc3c(cc21)OCO3.[Cl-] [Compound No. 111]", "unitsOfMeasure": "°C", "melting point": 88}
{"molecule": "COc1cc2c(cc1OC)C(C)=[N+](Cc1ccc(F)c(F)c1)CC2.[Cl-] [Compound No. 39]", "unitsOfMeasure": "°C", "melting point": 88}
